- Test system: Escherichia coli (E. coli) strain CFT073 ATCC 700928
- Format: cell-based
- TEST SETTINGS: ATCC 700928, 22 h
Record form. Attribute: MIC. Fill in for each entry.
Answers are plain numbers, in µM.

Observe how each entry below is paired with its result.
COMPOUND	REPORTED RESULT
CC[C@@H](C)[C@@H]1NC(=O)[C@H](CC(C)C)N(C)C(=O)[C@H](C)[C@@H](CCCCc2ccccc2)OC(=O)CNC(=O)[C@H]([C@H](C)O)NC(=O)[C@H](CN)NC1=O	12
CCCCCC[C@H]1OC(=O)CNC(=O)[C@H]([C@H](C)O)NC(=O)[C@H](CN)NC(=O)C(C2CC3CCC2C3)NC(=O)[C@H](CCC)N(C)C(=O)[C@@H]1C (single isomer, unassigned)	8.8

Hello, I would appreciate it if you could give MIC for each entry below.
1. CCCCCCC[C@H]1OC(=O)CNC(=O)[C@H]([C@H](C)O)NC(=O)[C@H](CO)NC(=O)[C@H]([C@H](C)CC)NC(=O)[C@H](CC(C)C)N(C)C(=O)[C@@H]1CC
2. CCCCCCCCCC[C@H]1OC(=O)CNC(=O)[C@H](CO)NC(=O)[C@H](CO)NC(=O)[C@H](C(CC)CC)NC(=O)[C@H](CC(C)C)N(C)C(=O)[C@@H]1C
3. CCCCCCCCCC[C@H]1OC(=O)CNC(=O)[C@H](Cc2c[nH]nn2)NC(=O)[C@H](CN)NC(=O)[C@H](C2CCCCC2)NC(=O)[C@H](CC(C)C)N(C)C(=O)[C@@H]1C

Found:
25
13
4.4
